Molecular target: recombinant human Cathepsin B (Homo sapiens)
Construct: purchased R&D Systems (Bio-Techne AG) 953-CY-010
Assay: Recombinant human Cathepsin B-induced cleavage (in vitro enzymatic cleavage assay, UHPLC-MS/MS)
Type: biochemical
Settings: reference Cys-MC-Val-Cit-PABC-MMAF
Non-standard residues stand in square brackets, D forms with d. Residues, ends and D or L forms follow the SMILES beside them. Groups on a side chain read outwards from the residue. *: point of attachment. Camptothecin(20S-OCO) = CC[C@@]1(OC(=O)*)C(=O)OCc2c1cc1n(c2=O)Cc2cc3ccccc3nc2-1; X2 = CC(=O)N[C@@H](CSC1CC(=O)N(CCC(=O)*)C1=O)C(=O)O; Dolaproine = CO[C@@H]([C@@H]1CCCN1)[C@@H](C)C(=O)O; Dil = CC[C@H](C)[C@H](NC)[C@@H](CC(=O)O)OC; NMe2Val = CC(C)[C@@H](C(=O)*)N(C)C; PEG5 = NCCOCCOCCOCCOCCOCCC(=O)O
Recorded Ratio (T1/2 Compound/T1/2 Reference) by entry

COMPOUND | Ratio (T1/2 Compound/T1/2 Reference)
CC[C@@]1(OC(=O)OC[C@H](NC(=O)[C@H](CCCNC(=N)N)NC(=O)[C@H](Cc2ccccc2)NC(=O)CCOCCOCCOCCOCCOCCNC(=O)[C@@H](N)CCCNC(=N)N)C(=O)N[C@@H](Cc2ccccc2)C(=O)O)C(=O)OCc2c1cc1n(c2=O)Cc2cc3ccccc3nc2-1 [Compound 11, Arg-PEG4-Phe-Arg-Ser(CO-CPT)-Phe-OH] (H-R[PEG5]FRS(Camptothecin(20S-OCO))F-OH; N-terminus assumed) | 0.2
CC[C@H](C)[C@@H]([C@@H](CC(=O)N1CCC[C@H]1[C@H](OC)[C@@H](C)C(=O)N[C@@H](Cc1ccccc1)C(=O)N[C@@H](CCCNC(=N)N)C(=O)N[C@@H](CCCCNC(=O)CCOCCOCCOCCOCCOCCNC(=O)CCN1C(=O)CC(SC[C@H](NC(C)=O)C(=O)O)C1=O)C(=O)N[C@@H](Cc1ccccc1)C(=O)O)OC)N(C)C(=O)[C@@H](NC(=O)[C@H](C(C)C)N(C)C)C(C)C (stereo partly drawn) [Compound 1, AF-Arg-Lys(PEG4-Mal-Cys-Ac)-Phe-OH] (NMe2Val-V[Dil][Dolaproine]FRK([PEG5-X2])F-OH) | 0.12

###

Molecular target: T1, recombinant human Cathepsin B (Homo sapiens, UniProt P07858)
T1 construct: purchased R&D Systems (Bio-Techne AG) 953-CY-010
Experiment: Recombinant human Cathepsin B-induced cleavage (in vitro enzymatic cleavage assay, UHPLC-MS/MS)
Assay type: biochemical
Conditions: human; 10 μM test compound, Cathepsin B 2 μg/mL, 25 mM MES buffer pH 5.0, 37° C.; read-out: T1/2 Compound
Residues, ends and D or L forms follow the SMILES beside them. *: point of attachment. DM1Mal(CH2)2CO = COc1cc2cc(c1Cl)N(C)C(=O)C[C@H](OC(=O)[C@H](C)N(C)C(=O)CCSC1CC(=O)N(CCC(=O)*)C1=O)[C@]1(C)O[C@H]1[C@H](C)[C@@H]1C[C@@](O)(NC(=O)O1)[C@H](OC)/C=C/C=C(\C)C2; X2 = CC(=O)N[C@@H](CSC1CC(=O)N(CCC(=O)*)C1=O)C(=O)O; PEG4 = NCCOCCOCCOCCOCCC(=O)O
PARAMETER MEASURED: half-life at 10 μM (s)

COMPOUND | SUBJECT OF TEST | PARAMETER MEASURED | UNITS LABEL | READING
COc1cc2cc(c1Cl)N(C)C(=O)C[C@H](OC(=O)[C@H](C)N(C)C(=O)CCSC1CC(=O)N(CCC(=O)NCCCC[C@H](NC(=O)[C@H](CCCCN)NC(=O)[C@H](Cc3ccccc3)NC(=O)CCOCCOCCOCCOCCNC(=O)CCN3C(=O)CC(SC[C@H](NC(C)=O)C(=O)O)C3=O)C(=O)N[C@@H](Cc3ccccc3)C(=O)N[C@@H](Cc3ccccc3)C(=O)N[C@@H](CCCCN)C(=O)O)C1=O)[C@]1(C)O[C@H]1[C@H](C)[C@@H]1C[C@@](O)(NC(=O)O1)[C@H](OC)/C=C/C=C(\C)C2 (stereo partly shown) [Compound 28] ({X2-PEG4}-FKK(DM1Mal(CH2)2CO)FFK-OH) | T1, recombinant human Cathepsin B (Homo sapiens, UniProt P07858) | half-life at 10 μM | s | 18
